target: UniProtKB P30305; assay: In vitro inhibition of CDC25B using the fluorogenic substrate 3-OMFP (CDC25B WT, Ex. C5); assay type: biochemical; conditions: 3-OMFP substrate, 1 hour room temperature; read-out: CDC25B WT (Ex. C5): pIC50 values (converted)
property: IC50 (nM)
The figure you give is taken to be in nM; do not add the unit.

Observe how each entry below is paired with its result.
>  <molecule smiles>
Cn1c(=O)nc2n(C3CCCC3)nc(-c3ccc(-c4ccc(CN5CCCC5)cc4)o3)nc-2c1=O

>  <unit label>
nM

>  <observed>
18.6

$$$$
>  <molecule smiles>
Cn1c(=O)nc2n(C3CCCC3)nc(-c3ccc(-c4ccc(CN(CCO)CCO)cc4)o3)nc-2c1=O

>  <unit label>
nM

>  <observed>
12.9

$$$$
>  <molecule smiles>
Cn1c(=O)nc2n(C3CCN(S(N)(=O)=O)CC3)nc(-c3ccc(-c4cccc(Cl)c4)o3)nc-2c1=O

>  <unit label>
nM

>  <observed>
15.2

$$$$

Request: Tell me the measured IC50 of `Cn1c(=O)nc2n(C3CCCC3)nc(-c3ccc(-c4ccc(CN5CCN(S(N)(=O)=O)CC5)cc4)o3)nc-2c1=O` , please.
Result: 19.8

Request: // query IC50 value for entry `Cn1c(=O)nc2n(C3CCCC3)nc(-c3ccc(-c4ccc(CN5CCN(CCOCCO)CC5)cc4)o3)nc-2c1=O`
Result: 12

Request: Give the measured IC50 of `Cn1c(=O)nc2n(C3CCCC3)nc(-c3ccc(-c4ccc(CNCc5cccnc5)cc4)o3)nc-2c1=O` .
Result: 14

* * *

IC50 values for the compounds below.
molecular target: AKT3 (Homo sapiens, UniProt Q9Y243); test: Cellular inhibition of AKT3 using an ELISA (AKT cel, Ex. C6); assay type: cell-based; set-up: endogenous in cells; host or cells: MDA-MB 231; details: MDA-MB 231 cells, phosphorylated MAPK ELISA, 30 minutes with compound; read-out: AKT cel (Ex. C6): pIC50 values (converted)
Sequence (Q9Y243 whole entry): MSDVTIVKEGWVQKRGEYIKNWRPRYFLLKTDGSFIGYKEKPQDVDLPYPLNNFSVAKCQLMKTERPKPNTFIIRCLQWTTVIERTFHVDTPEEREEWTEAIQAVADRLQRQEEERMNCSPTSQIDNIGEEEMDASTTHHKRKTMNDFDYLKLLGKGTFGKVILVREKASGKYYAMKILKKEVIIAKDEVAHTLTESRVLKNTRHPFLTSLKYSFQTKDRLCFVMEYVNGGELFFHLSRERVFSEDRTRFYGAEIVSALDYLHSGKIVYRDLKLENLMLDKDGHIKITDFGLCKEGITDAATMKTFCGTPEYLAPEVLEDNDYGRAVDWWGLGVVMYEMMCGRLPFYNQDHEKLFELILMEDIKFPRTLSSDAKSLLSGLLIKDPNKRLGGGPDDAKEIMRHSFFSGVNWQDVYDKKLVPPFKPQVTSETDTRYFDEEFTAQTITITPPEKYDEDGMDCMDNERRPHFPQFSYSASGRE
Just the number in nM, nothing appended.

In the examples that follow, each entry is paired with its recorded IC50.
>  <molecule smiles>
COC1CCN(Cc2ccc(-c3ccc(-c4nc5c(=O)n(C)c(=O)nc-5n(C5CCCC5)n4)o3)cc2)CC1

>  <IC50, nM>
58.3

$$$$
>  <molecule smiles>
Cn1c(=O)nc2n(C3CCCC3)nc(-c3ccc(-c4ccc(S(=O)(=O)N5CCOCC5)cc4)o3)nc-2c1=O

>  <IC50, nM>
471

$$$$

Request: Look up IC50 for this compound: `CN(CCO)Cc1ccc(-c2ccc(-c3nc4c(=O)n(C)c(=O)nc-4n(C4CCCC4)n3)o2)cc1`
Result: 95.7

Request: Suppose we examine the compound `Cn1c(=O)nc2n(C3CCCC3)nc(-c3ccc(-c4ccc(CN5CCC(N)CC5)cc4)o3)nc-2c1=O` ; what IC50 value has been reported?
Result: 34.4

Request: What value of IC50 has been recorded for this entry: `Cn1c(=O)nc2n(C3CCCC3)nc(-c3ccc(-c4ccc(CN5CCC(O)CC5)cc4)o3)nc-2c1=O`
Result: 65.5

Request: Form field: reported IC50 of `Cn1c(=O)nc2n(C3CCCC3)nc(-c3ccc(-c4ccc(CN5CCCC5)cc4)o3)nc-2c1=O`
Result: 71.8

Request: Entry under review: `CC(C)n1nc(-c2ccc(-c3ccc(CN(C)CCO)cc3)o2)nc2c(=O)n(C)c(=O)nc1-2` . Reported IC50?
Result: 35.2

* * *

Measured IC50 values are reported for all entries that follow.
molecular target: AKT3 (Homo sapiens, UniProt Q9Y243); experiment: Cellular inhibition of AKT3 using an ELISA (AKT cel, Ex. C6); type: cell-based; design: endogenous in cells; host or cells: MDA-MB 231; conditions: MDA-MB 231 cells, phosphorylated MAPK ELISA, 30 minutes with compound; read-out: AKT cel (Ex. C6): pIC50 values (converted)
// units = µM; emit number, no label

>  <molecule smiles>
CC(C)n1nc(-c2ccc(-c3ccc(CN4CCOCC4)cc3)o2)nc2c(=O)n(C)c(=O)nc1-2

>  <assayed system>
AKT3 (Homo sapiens, UniProt Q9Y243)

>  <IC50, µM>
0.139

$$$$

Now examine the next entry.
Request: Suppose we examine the molecule `Cn1c(=O)nc2n(C3CCCC3)nc(-c3ccc(-c4ccc(CN5CCOCC5)cc4)o3)nc-2c1=O` ; what IC50 value has been reported?
Result: 0.0638

* * *

target: cdk4 (Homo sapiens, UniProt P11802); assay: In vitro inhibition of cdk4 using a scintillant proximity assay (CDK4 SPA, Ex. C1); format: biochemical
Sequence (P11802 whole entry): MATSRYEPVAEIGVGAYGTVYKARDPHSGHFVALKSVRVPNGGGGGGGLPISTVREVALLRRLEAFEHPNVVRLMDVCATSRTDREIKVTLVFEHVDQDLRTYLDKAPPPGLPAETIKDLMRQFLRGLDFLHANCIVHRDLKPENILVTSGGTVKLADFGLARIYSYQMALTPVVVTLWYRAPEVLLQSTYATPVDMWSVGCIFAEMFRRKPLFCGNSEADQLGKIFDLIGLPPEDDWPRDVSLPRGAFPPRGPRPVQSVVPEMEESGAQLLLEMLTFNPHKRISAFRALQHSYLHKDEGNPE
Sequence (P24385 whole entry partner): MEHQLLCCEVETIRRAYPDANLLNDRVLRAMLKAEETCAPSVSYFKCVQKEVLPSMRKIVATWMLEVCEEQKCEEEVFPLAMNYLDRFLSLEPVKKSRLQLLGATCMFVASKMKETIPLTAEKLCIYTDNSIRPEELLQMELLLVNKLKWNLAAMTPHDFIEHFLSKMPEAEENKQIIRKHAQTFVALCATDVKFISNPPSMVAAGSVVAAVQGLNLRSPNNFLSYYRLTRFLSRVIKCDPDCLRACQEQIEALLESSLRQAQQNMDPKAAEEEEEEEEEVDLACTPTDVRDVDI
property: IC50 (nM)
Express the result in nM but write the number alone.

Request: Fill in: IC50 of `Cn1c(=O)nc2n(C3CCCC3)nc(-c3ccc(-c4ccc(OCCN5CCOCC5)cc4)o3)nc-2c1=O` is ___
Result: 286

* * *

test system: A2780 cell; assay: Cytotox/survival of A2780 cell after 3 days; type: cell-based; conditions: Homo sapiens, 72 h; A2780 ovarian carcinoma cell line, 3 days; read-out: Cytotox/survival of A2780 cell after 3 days - pIC50 values (converted)
Please use class 1 for IC50 under 0.06 µM and class 0 for everything else, ties included.

Look over these answered cases.
>  <compound>
Cn1c(=O)nc2n(C3CCCC3)nc(-c3ccc(-c4ccc(CN5CCN(CCO)CC5)cc4)o3)nc-2c1=O [Compound 106]

>  <cat>
class 0

$$$$
>  <compound>
Cn1c(=O)nc2n(C3CCCC3)nc(-c3ccc(-c4ccc(CN5CCC(N)CC5)cc4)o3)nc-2c1=O [Compound 37]

>  <cat>
class 0

$$$$
>  <compound>
CONCc1ccc(-c2ccc(-c3nc4c(=O)n(C)c(=O)nc-4n(C4CCCC4)n3)o2)cc1 [Compound 115]

>  <cat>
class 1

$$$$
>  <compound>
Cn1c(=O)nc2n(C3CCCC3)nc(-c3ccc(-c4ccc(CN5CCNCC5)cc4)o3)nc-2c1=O [Compound 105]

>  <cat>
class 1

$$$$
>  <compound>
Cn1nc(-c2ccc(-c3cccc(CNS(C)(=O)=O)c3)o2)nc2c(=O)n(C)c(=O)nc1-2 [Compound 2]

>  <cat>
class 0

$$$$
>  <compound>
Cn1c(=O)nc2n(C3CCCC3)nc(-c3ccc(-c4ccc(CN5CCN(S(N)(=O)=O)CC5)cc4)o3)nc-2c1=O [Compound 112]

>  <cat>
class 0

$$$$

Request: Regarding Cn1c(=O)nc2n(C3CCCC3)nc(-c3ccc(-c4ccc(CNC(CO)(CO)CO)cc4)o3)nc-2c1=O [Compound 126] , kindly confirm whether its IC50 is beneath 0.06 µM.
Result: class 0

Request: Does the reported IC50 of the following compound sit strictly below 0.06 µM? Cn1c(=O)nc2n(C3CCCC3)nc(-c3ccc(-c4ccc(S(=O)(=O)N5CCOCC5)cc4)o3)nc-2c1=O [Compound 93]
Result: class 1

* * *

target: CDC25B (Homo sapiens, UniProt P30305); assay: In vitro inhibition of CDC25B using the fluorogenic substrate 3-OMFP (CDC25B WT, Ex. C5); format: biochemical; settings: 3-OMFP substrate, 1 hour room temperature; read-out: CDC25B WT (Ex. C5): pIC50 values (converted)
Sequence (P30305 whole entry): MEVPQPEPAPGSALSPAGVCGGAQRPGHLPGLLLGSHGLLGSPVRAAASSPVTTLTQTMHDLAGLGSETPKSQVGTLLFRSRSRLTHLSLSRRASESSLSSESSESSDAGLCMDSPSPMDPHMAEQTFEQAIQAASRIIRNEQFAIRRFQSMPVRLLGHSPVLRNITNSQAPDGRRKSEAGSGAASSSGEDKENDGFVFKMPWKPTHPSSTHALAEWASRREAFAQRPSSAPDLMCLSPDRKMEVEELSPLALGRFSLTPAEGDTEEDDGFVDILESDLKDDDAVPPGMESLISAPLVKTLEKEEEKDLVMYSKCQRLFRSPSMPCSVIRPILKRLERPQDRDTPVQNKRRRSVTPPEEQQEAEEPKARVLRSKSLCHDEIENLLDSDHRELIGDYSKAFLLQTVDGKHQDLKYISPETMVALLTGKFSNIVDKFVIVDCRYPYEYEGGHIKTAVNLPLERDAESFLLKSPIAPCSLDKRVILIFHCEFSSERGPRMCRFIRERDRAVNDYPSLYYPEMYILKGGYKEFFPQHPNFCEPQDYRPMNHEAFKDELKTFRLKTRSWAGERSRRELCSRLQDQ
property: IC50 (nM)
Field: numeric (nM). Do not append units.

Solved cases (3 shown):
>  <molecule>
CC(C)n1nc(-c2ccc(-c3ccc(CN4CCOCC4)cc3)o2)nc2c(=O)n(C)c(=O)nc1-2 [Compound 78]

>  <IC50 (nM)>
11.3

$$$$
>  <molecule>
Cn1c(=O)nc2n(C3CCCC3)nc(-c3ccc(-c4ccc(CNCCO)cc4)o3)nc-2c1=O [Compound 113]

>  <IC50 (nM)>
14.2

$$$$
>  <molecule>
CC(C)n1nc(-c2ccc(-c3ccc(CN(C)CCO)cc3)o2)nc2c(=O)n(C)c(=O)nc1-2 [Compound 87]

>  <IC50 (nM)>
24.3

$$$$

Request: Quick check: IC50 of COC1CCN(Cc2ccc(-c3ccc(-c4nc5c(=O)n(C)c(=O)nc-5n(C5CCCC5)n4)o3)cc2)CC1 [Compound 132] ?
Result: 20.2

Request: IC50 for COCCN1CCN(Cc2ccc(-c3ccc(-c4nc5c(=O)n(C)c(=O)nc-5n(C5CCCC5)n4)o3)cc2)CC1 [Compound 133] ?
Result: 11.6

Request: If you can, please state the reported IC50 value of Cn1c(=O)nc2n(C3CCCC3)nc(-c3ccc(-c4ccc(CN5CCOCC5)cc4)o3)nc-2c1=O [Compound 94] .
Result: 11.2

Request: I am curious: what IC50 value has been reported for CN1CCN(C(=O)COc2ccc(-c3ccc(-c4nc5c(=O)n(C)c(=O)nc-5n(C5CCCC5)n4)o3)cc2)CC1 [Compound 119] ?
Result: 17.6

Request: What measured IC50 goes with Cn1nc(-c2ccc(-c3cccc(CNS(C)(=O)=O)c3)o2)nc2c(=O)n(C)c(=O)nc1-2 [Compound 2] ?
Result: 20.8

Request: Endpoint output: IC50 of CN(CCO)Cc1ccc(-c2ccc(-c3nc4c(=O)n(C)c(=O)nc-4n(C4CCCC4)n3)o2)cc1 [Compound 107] . Value?
Result: 16

Request: IC50 lookup needed for CONCc1ccc(-c2ccc(-c3nc4c(=O)n(C)c(=O)nc-4n(C4CCCC4)n3)o2)cc1 [Compound 115] , thanks.
Result: 13.2

Request: Which IC50 reading was recorded for the molecule Cn1c(=O)nc2n(C3CCCC3)nc(-c3ccc(-c4ccc(CN5CCNCC5)cc4)o3)nc-2c1=O [Compound 105] ?
Result: 16.6

Request: May I ask what IC50 has been recorded for Cn1c(=O)nc2n(C3CCCC3)nc(-c3ccc(-c4ccc(CO)cc4)o3)nc-2c1=O [Compound 31] ?
Result: 13.8

Request: Which measured IC50 value corresponds to Cn1c(=O)nc2n(C3CCCC3)nc(-c3ccc(-c4cccc(CN5CCOCC5)c4)o3)nc-2c1=O [Compound 98] ?
Result: 15.1

Request: Entry Cn1c(=O)nc2n(C3CCCC3)nc(-c3ccc(-c4ccc(CN5CCC(O)CC5)cc4)o3)nc-2c1=O [Compound 103] has what IC50?
Result: 16

Request: What does the data say about its IC50? Entry: Cn1c(=O)nc2n(C3CCCC3)nc(-c3ccc(-c4ccc(CN5CCN(CCO)CC5)cc4)o3)nc-2c1=O [Compound 106]
Result: 15.6
